Attribution: BindingDB's records for PubMed 1352553

MEASURED_ON: Beta-nerve growth factor (Rattus norvegicus, UniProt P25427)
Sequence (P25427 122-241 limits assumed): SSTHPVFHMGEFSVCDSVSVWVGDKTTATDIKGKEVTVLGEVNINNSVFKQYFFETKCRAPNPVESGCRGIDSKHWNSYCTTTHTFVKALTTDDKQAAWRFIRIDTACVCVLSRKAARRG
pKi: −log10 of the molar value.

{"columns": ["STRUCTURE_SMILES_STRING", "MEASURED_ON", "pKi"],
 "data": [
  ["Oc1cc2c(cc1O)[C@@H]1c3ccccc3CN[C@@H]1CC2", "Beta-nerve growth factor (Rattus norvegicus, UniProt P25427)", "< 5.00"]
]}

###

MEASURED_ON: Arginine vasopressin-induced protein 1 (Rattus norvegicus, UniProt Q8VDA6)
Sequence (Q8VDA6 whole entry): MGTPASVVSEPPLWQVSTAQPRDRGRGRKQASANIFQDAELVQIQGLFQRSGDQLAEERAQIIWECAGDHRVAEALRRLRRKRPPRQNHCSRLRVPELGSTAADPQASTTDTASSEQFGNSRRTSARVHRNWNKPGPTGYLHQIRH
pKi: −log10 of the molar value.
PARAMETER: pKi

{"columns": ["STRUCTURE_SMILES_STRING", "MEASURED_ON", "OBSERVED"],
 "data": [
  ["Oc1cc2c(cc1O)[C@@H]1c3ccccc3CN[C@@H]1CC2", "Arginine vasopressin-induced protein 1 (Rattus norvegicus, UniProt Q8VDA6)", "< 5.00"]
]}
